Measured self-cleavage, listed per entry for reference.
B1: LINE1-mini (parent)
chain: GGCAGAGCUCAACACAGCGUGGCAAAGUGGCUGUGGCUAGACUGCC

# Variants of: B1
# protocolNotes: self-cleavage, relative activity (ratio to wild type); higher = more cleavage; in vitro, sequencing; the parent is a self-cleaving ribozyme
Just the number, please, no unit after it.

For orientation, consider the following solved cases.
> print(dat)
   variantdescription  endpointlabel  recordednumber
1           C10U U28A  self-cleavage            0.16
2           A14C U20A  self-cleavage            0.08
3           A24U C45G  self-cleavage             0.3
4             G2C C8G  self-cleavage            0.08
5           A41G U43A  self-cleavage            0.05
6           G19U G36C  self-cleavage             0.1

Attention now turns to another entry.
Q: Data request, read-out self-cleavage, for G33A C37U
A: 0.04
